# Target Entity: RAF proto-oncogene serine/threonine-protein kinase (Homo sapiens) (UniProt P04049);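 note: values are the mean percent inhibition of CRAF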
# Sequence (P04049 whole entry): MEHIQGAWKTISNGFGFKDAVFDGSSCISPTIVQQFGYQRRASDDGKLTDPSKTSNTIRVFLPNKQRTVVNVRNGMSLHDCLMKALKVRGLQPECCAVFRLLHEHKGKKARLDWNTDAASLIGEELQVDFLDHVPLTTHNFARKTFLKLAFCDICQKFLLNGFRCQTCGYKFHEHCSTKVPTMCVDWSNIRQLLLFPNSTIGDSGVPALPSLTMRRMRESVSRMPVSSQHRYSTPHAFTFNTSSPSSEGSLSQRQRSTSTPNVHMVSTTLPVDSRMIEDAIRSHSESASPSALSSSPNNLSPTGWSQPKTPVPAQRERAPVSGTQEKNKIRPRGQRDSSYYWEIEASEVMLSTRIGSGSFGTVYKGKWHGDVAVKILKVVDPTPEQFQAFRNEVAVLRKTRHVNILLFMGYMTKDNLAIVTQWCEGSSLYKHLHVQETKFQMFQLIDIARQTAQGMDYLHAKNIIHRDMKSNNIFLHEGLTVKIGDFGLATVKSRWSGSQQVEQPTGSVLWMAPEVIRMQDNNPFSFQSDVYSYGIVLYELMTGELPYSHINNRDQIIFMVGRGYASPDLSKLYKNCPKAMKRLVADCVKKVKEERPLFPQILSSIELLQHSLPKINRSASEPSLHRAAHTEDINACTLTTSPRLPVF
# Test Conditions: at 1 µM
Quantity Kind: inhibition (%)
Report the figure in % without appending any unit label.

Please report inhibition for the following compound: COc1cccc(-n2ncc3c(N/N=C/c4ccncc4)ncnc32)c1
3.93

Please report inhibition for the following compound: COc1cc2c(cc1Nc1nc(Nc3ccsc3C(N)=O)c3cc[nH]c3n1)N(C(=O)CN(C)C)CCC2
-4.6

Please report inhibition for the following compound: NC(=O)c1sc(-n2cnc3cc(C(F)(F)F)ccc32)cc1OCc1ccccc1Br
5.05

Please report inhibition for the following compound: NS(=O)(=O)c1ccc(N/C=C2\C(=O)Nc3ccc4ncsc4c32)cc1
0.21

Please report inhibition for the following compound: COc1cccc(COc2cc(-n3cnc4ccccc43)sc2C(N)=O)c1
0.06

Please report inhibition for the following compound: COc1cc(C=NNc2ncnc3c2cnn3Cc2ccccc2)ccc1O
8.55

Please report inhibition for the following compound: CCn1c(-c2nonc2N)nc2c(C#CC(C)(C)O)ncc(OC[C@@H]3CCCN3)c21
0.33

Please report inhibition for the following compound: CCn1c(-c2nonc2N)nc2c(C#CC(C)(C)O)ncc(OCC3CCNCC3)c21
1.08

Please report inhibition for the following compound: CCn1c(-c2nonc2N)nc2c(C#CCN)ncc(OCCCN)c21
1.98

Please report inhibition for the following compound: Fc1ccc(-c2ncn(C3CCNCC3)c2-c2ccnc(Oc3ccccc3)n2)cc1
1.07

Please report inhibition for the following compound: Cc1cc(-c2ccco2)cc(C)c1/C=C/c1cncc(-c2nn[nH]n2)c1
-5.34

---

# System: Mast/stem cell growth factor receptor Kit (Homo sapiens), P10721 [D816V]
# Sequence (P10721 whole entry D816V): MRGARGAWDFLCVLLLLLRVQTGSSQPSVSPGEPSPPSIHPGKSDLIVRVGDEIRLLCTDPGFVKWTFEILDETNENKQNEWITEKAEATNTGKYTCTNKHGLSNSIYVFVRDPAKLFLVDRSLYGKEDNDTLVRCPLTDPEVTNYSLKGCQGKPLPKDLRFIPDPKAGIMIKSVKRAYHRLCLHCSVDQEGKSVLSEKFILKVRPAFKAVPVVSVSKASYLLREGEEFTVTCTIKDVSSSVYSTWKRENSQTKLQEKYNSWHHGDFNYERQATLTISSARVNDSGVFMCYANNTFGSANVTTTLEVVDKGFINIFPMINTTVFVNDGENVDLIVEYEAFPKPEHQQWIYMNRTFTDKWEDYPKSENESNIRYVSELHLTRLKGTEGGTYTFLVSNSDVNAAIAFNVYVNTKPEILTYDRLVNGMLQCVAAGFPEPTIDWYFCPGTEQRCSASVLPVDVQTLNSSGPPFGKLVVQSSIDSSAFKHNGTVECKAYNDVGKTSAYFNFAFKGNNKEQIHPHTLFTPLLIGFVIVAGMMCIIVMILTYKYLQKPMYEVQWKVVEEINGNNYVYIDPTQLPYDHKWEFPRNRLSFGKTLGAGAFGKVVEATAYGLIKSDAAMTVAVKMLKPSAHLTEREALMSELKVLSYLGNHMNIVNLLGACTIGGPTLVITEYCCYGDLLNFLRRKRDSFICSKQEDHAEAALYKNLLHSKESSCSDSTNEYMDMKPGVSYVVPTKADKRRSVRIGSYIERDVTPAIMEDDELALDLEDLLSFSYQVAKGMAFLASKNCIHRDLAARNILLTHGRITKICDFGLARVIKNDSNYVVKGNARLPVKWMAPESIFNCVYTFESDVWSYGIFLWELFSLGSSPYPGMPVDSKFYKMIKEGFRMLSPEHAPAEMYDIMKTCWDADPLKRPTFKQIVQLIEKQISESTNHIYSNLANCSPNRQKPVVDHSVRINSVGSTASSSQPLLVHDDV
# Test Conditions: at 0.1 µM
Would you mind telling me the reported inhibition of each entry?
Report the figure in % without appending any unit label.

Please report inhibition for the following molecule: COc1cccc(-n2ncc3c(N/N=C/c4ccncc4)ncnc32)c1
2.45

Please report inhibition for the following molecule: COc1cc2c(cc1Nc1nc(Nc3ccsc3C(N)=O)c3cc[nH]c3n1)N(C(=O)CN(C)C)CCC2
0.61

Please report inhibition for the following molecule: Cc1cc(-c2ccco2)cc(C)c1/C=C/c1cncc(-c2nn[nH]n2)c1
-2.81

Please report inhibition for the following molecule: COc1cccc(COc2cc(-n3cnc4ccccc43)sc2C(N)=O)c1
-0.07

Please report inhibition for the following molecule: Nc1nonc1-c1nc2cnccc2n1C1CCCCC1
-4.78

Please report inhibition for the following molecule: NC(=O)c1sc(-n2cnc3cc(C(F)(F)F)ccc32)cc1OCc1ccccc1Br
-1.89

Please report inhibition for the following molecule: CCn1c(-c2nonc2N)nc2c(C#CCN)ncc(OCCCN)c21
-3.56

---

# Target Entity: MAP/microtubule affinity-regulating kinase 3 (Homo sapiens) (UniProt P27448);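 note: reported values are averaged percent inhibition of MARK3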
# Sequence (P27448 whole entry, looked up): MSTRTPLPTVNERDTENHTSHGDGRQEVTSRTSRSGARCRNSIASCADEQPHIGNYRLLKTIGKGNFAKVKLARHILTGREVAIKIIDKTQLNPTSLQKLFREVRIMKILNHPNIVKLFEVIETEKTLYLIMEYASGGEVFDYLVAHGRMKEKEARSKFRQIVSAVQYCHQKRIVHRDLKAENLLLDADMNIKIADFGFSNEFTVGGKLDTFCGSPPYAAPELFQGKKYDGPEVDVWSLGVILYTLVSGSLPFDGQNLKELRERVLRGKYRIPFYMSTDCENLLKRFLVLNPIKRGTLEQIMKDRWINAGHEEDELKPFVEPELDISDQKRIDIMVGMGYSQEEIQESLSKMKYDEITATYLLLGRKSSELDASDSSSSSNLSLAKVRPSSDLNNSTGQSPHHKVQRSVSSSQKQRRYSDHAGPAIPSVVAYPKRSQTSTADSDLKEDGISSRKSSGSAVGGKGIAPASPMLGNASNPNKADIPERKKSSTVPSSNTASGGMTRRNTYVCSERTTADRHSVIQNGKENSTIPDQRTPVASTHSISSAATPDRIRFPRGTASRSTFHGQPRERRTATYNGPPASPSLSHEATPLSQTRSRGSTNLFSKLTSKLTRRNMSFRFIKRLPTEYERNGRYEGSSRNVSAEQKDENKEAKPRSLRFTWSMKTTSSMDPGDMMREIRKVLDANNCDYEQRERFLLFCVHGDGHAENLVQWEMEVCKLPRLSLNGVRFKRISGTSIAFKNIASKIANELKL
# Test Conditions: at 1 µM
Quantity Kind: inhibition (%)
Report the figure in % without appending any unit label.

Please report inhibition for the following molecule: CCn1c(-c2nonc2N)nc2c(C#CC(C)(C)O)ncc(OCC3CCNCC3)c21
68.8

Please report inhibition for the following molecule: Nc1nonc1-c1nc2cnccc2n1C1CCCCC1
24.2

Please report inhibition for the following molecule: NC(=O)c1sc(-n2cnc3cc(C(F)(F)F)ccc32)cc1OCc1ccccc1Br
0.82

Please report inhibition for the following molecule: Fc1ccc(-c2ncn(C3CCNCC3)c2-c2ccnc(Oc3ccccc3)n2)cc1
-0.46

Please report inhibition for the following molecule: COc1cc2c(cc1Nc1nc(Nc3ccsc3C(N)=O)c3cc[nH]c3n1)N(C(=O)CN(C)C)CCC2
4.97
